Method: Pharmacokinetic profile in CD-1 mice
Format: in vivo
Condition Info: plasma, po; CD-1 mouse, p.o. 10 mg/kg
Assay Readout: half-life (h)

INSERT INTO assay_data (molecule, assay_readout, unit_of_measurement, recorded_number) VALUES
  ('O=C1CCC(N2C(=O)c3cccc(OCC(=O)N4CCN(c5ccc(N(C(=O)NCc6ccccc6)C6CCC(Nc7ncc8ccccc8n7)CC6)cc5)CC4)c3C2=O)C(=O)N1 (stereo not shown)', 'half-life', 'h', 2.44);

----------
Method: Pharmacokinetic profile in Sprague Dawley rats
Type: in vivo, rat
Condition Info: Sprague-Dawley, rat, plasma, iv; SD rats, i.v. 2.5 mg/kg
Assay Readout: Cmax (µM)

INSERT INTO assay_data (compound, assay_readout, recorded_number) VALUES
  ('O=C1CCC(N2C(=O)c3cccc(OCC(=O)N4CCN(c5ccc(N(C(=O)NCc6ccccc6)C6CCC(Nc7ncc8ccccc8n7)CC6)cc5)CC4)c3C2=O)C(=O)N1 (stereo not shown)', 'Cmax', 4.13);

----------
Method: Pharmacokinetic profile in CD-1 mice
Format: in vivo
Condition Info: plasma, iv; CD-1 mouse, i.v. 2.5 mg/kg
Assay Readout: clearance

INSERT INTO assay_data (compound, assay_readout, result) VALUES
  ('O=C1CCC(N2C(=O)c3cccc(OCC(=O)N4CCN(c5ccc(N(C(=O)NCc6ccccc6)C6CCC(Nc7ncc8ccccc8n7)CC6)cc5)CC4)c3C2=O)C(=O)N1 (stereo not shown) [YJ9069]', 'clearance', '13.1 mL/min/kg');

----------
Method: Pharmacokinetic profile in Sprague Dawley rats
Format: in vivo, rat
Condition Info: Sprague-Dawley, rat, plasma; SD rats, oral 10 mg/kg; read-out: AUC(0-t)
Assay Readout: AUC(0-t) (ng·h/mL)

INSERT INTO assay_data (molecule, recorded_number) VALUES
  ('O=C1CCC(N2C(=O)c3cccc(OCC(=O)N4CCN(c5ccc(N(C(=O)NCc6ccccc6)C6CCC(Nc7ncc8ccccc8n7)CC6)cc5)CC4)c3C2=O)C(=O)N1 (stereo not shown)', 5.06);

----------
Tested on: MCF12A
Method: Cell viability assay (CellTiter-Glo, 5 days)
Assay type: cell-based
Condition Info: Homo sapiens, MCF-12A, 120 h, 5 days of treatment, Figure 1F
pIC50: −log10 of the molar value.
Assay Readout: pIC50

INSERT INTO measurements (compound, tested_on, rel, recorded_number) VALUES
  ('CN(C)C/C=C/C(=O)Nc1ccc(C(=O)N2CCC[C@@H](Nc3ncc(Cl)c(-c4c[nH]c5ccccc45)n3)C2)cc1 [THZ531, reference compound]', 'MCF12A', '=', 6.51),
  ('O=C1CCC(N2C(=O)c3cccc(OCC(=O)N4CCN(c5ccc(N(C(=O)NCc6ccccc6)C6CCC(Nc7ncc8ccccc8n7)CC6)cc5)CC4)c3C2=O)C(=O)N1 (centres unmarked)', 'MCF12A', '<', 5.00);
